Test system: SK-MEL-28 melanoma
Test: NCI-60 one-dose screen, 48 h (100 = growth as untreated, 0 = no growth, -100 = all killed)
Conditions: 10 µM unless noted
Compounds without any hit were thinned out: in the full panel of roughly 83,000, 20% have a hit.
Overview of reported growth across a group of molecules:
readout: growth (%)

> print(dat)
                                    molecule  readout  recorded.measurement
 1  CC(/C=C1\SC(=S)N(CC(=O)NC(Cc2c[nH]c3ccccc23)C(=O)O)C1=O)=C\c1ccccc1 (stereo not given)   growth                   105
 2  O=C1CCCc2nc3sc4c(=O)n(-c5ccccc5Cl)nnc4c3cc21   growth                   109
 3  CC/C(Cc1ccccc1)=C(\c1ccc(OCCN2CCCCCC2)cc1)c1ccc(OC(=O)NCc2ccccc2)cc1   growth                  87.2
 4  Nc1c(C(=O)Nc2ccccn2)sc2nc3c(cc12)C(O)CCC3 (stereo not given)   growth                  46.6
 5  O=C(CCC(=O)c1nc2ncccc2[nH]1)NN1C(=O)CSC1c1ccc(Cl)cc1 (stereo not given)   growth                   109
 6         Nc1c(C(=O)O)cc(Cl)cc1[N+](=O)[O-]   growth                   109
 7  COc1cc2ncnc(Nc3ccc(F)c(Cl)c3)c2cc1OCC(=O)N1CCN(c2ccc(F)cc2)CC1   growth                  98.4
 8  COc1ccc(/C=C/C(=O)c2ccc(NC(=O)CSc3nnc(-c4cc(-c5ccccc5)nc5ccccc45)n3-c3ccccc3)cc2)cc1   growth                  98.4
 9               Cc1c2ccccc2nc2c1ccc1cccnc12   growth                   113
10  O=C(O)C1CN(c2cccc(Cl)c2)N(c2cccc(Cl)c2)C1=O (stereo not given)   growth                  93.1

###

Test system: EKVX NSCLC
Experiment: NCI-60 one-dose screen, 48 h (100 = growth as untreated, 0 = no growth, -100 = all killed)
Conditions: 10 µM unless noted
The panel holds about 83,000 compounds, 20% with a hit somewhere; the sample as a whole holds those more often.
readout: growth (%)

> print(dat)
                                    compound  study.system  readout  recorded.measurement
 1  CC(C(=O)O)n1c(O)c(C=Nc2cccnc2)sc1=S (stereo unspecified)    EKVX NSCLC   growth                  96.4
 2                         S=c1ssnc1-c1cccs1    EKVX NSCLC   growth                   104
 3           CCCCNC1=C(OCC)C(=O)c2ccccc2C1=O    EKVX NSCLC   growth                   104
 4  O=C1CC2C=CCN2C=C1NC(=O)C1CCCCC1 (stereo unspecified)    EKVX NSCLC   growth                  92.1
 5  O=S(=O)(c1ccccc1)N1CCCN(c2nc(-c3ccccc3)nc3nc(-c4ccccc4)oc23)CC1    EKVX NSCLC   growth                   107
 6  O=C(CCC(=O)c1nc2ncccc2[nH]1)NN1C(=O)CSC1c1ccc(Cl)cc1 (stereo unspecified)    EKVX NSCLC   growth                   100
 7  COc1ccc(C2C3=C(COC3=O)N(CCO)c3cc4c(cc32)OCCO4)cc1OC (stereo unspecified)    EKVX NSCLC   growth                  56.5
 8  COc1cc(C(=O)C(=O)c2cc(OC)c(O)c(OC)c2)cc(OC)c1O    EKVX NSCLC   growth                   104
 9  Cn1c(=O)c2c(c3ccccc31)OC(N)=C(C#N)C21C(=O)c2ccccc2C1=O    EKVX NSCLC   growth                    86
10              C=CCN=C(N)SCCCCCCSC(N)=NCC=C    EKVX NSCLC   growth                  98.4
11  CCN(CCO)CC(C)Nc1ccc([N+](=O)[O-])c2sc3ccccc3c(=O)c12 (stereo unspecified)    EKVX NSCLC   growth                  25.7
